- System: IFNα-stimulated Kit225 T cells with STAT-dependent luciferase reporter
- protocol details: Kit225 T cell assay, STAT-dependent luciferase reporter, IFNα stimulated
- Type: cell-based, human
- conditions used: 200 U/mL human recombinant IFNα, 5-6 hours, read-out: IFNa Kit225 Reporter, LE (IC50)
pIC50: −log10 of the molar value.
# binarize pIC50: threshold 7 inclusive, high side 1, low side 0

Example cases with answers are listed next.
CCNc1cc(Nc2cccn(C)c2=O)nn2c(C(=O)NC3CCC3)cnc12 ... 0
CNc1cc(Nc2cccn(-c3cc(C)n(C)n3)c2=O)nn2c(C(=O)N[C@@H]3C[C@@H]3F)cnc12 ... 1
CNc1cc(Nc2cccn(-c3ccc(C)nn3)c2=O)nn2c(C(=O)NC(C)CC(C)C)cnc12 (stereo not drawn) ... 0

Consider the additional molecule presented here.
# check: pIC50 of CNc1cc(Nc2cccn(-c3ccc(C(C)O)cc3)c2=O)nn2c(C(=O)NC3CC3)cnc12 (stereo not drawn) is greater than or equal to 7
0

====

Please respond with reported pIC50 for every item in the list.
- Test system: IL-23-stimulated Kit225 T cells with STAT-dependent luciferase reporter
- protocol details: Kit225 T cell assay, STAT-dependent luciferase reporter, IL-23 stimulated
- Assay type: cell-based, human
- conditions used: Homo sapiens, KIT225, 20 ng/mL human recombinant IL-23, 5-6 hours, read-out: IL-23 Kit225 Reporter, LE (IC50)
- Experimental: Kit225 T cells with a stably-integrated STAT-dependent luciferase reporter were plated in RPMI (GIBCO) containing 10% heat-inactivated FBS (GIBCO) and 100 U/mL PenStrep (GIBCO). The cells were then stimulated with either 20 ng/mL human recombinant IL-23 or 200 U/mL human recombinant IFNα (PBL InterferonSource) for 5-6 hours. Luciferase expression was measured using the STEADY-GLO® Luciferase Assay System (PROMEGA®) according to the manufacturer's instructions.
Numbers only, as −log10 of the molar value.

Recorded pIC50, per entry:
CC(C)(CO)CNC(=O)c1cnc2c3c(c(Nc4cccn(-c5ccccn5)c4=O)nn12)OCCN3 ... 6.77
CNc1cc(Nc2cccn(C)c2=O)nn2c(C(=O)NC3(C#N)CC3)cnc12 ... 6.32
CNc1cc(Nc2cccn(C)c2=O)nn2c(C(=O)NC(C)(C)C)cnc12 ... 6.44
O=C(NC1CC1)c1cnc2c3c(c(Nc4cccn(-c5ccccn5)c4=O)nn12)OCCN3 ... 7.22
CNc1cc(Nc2cccn(-c3nccc(C(F)(F)F)n3)c2=O)nn2c(C(=O)NC3CCC3)cnc12 ... 6.82

Now consider the entry below.
get_value(item= CNc1cc(Nc2cccn(-c3cccc(F)n3)c2=O)nn2c(C(=O)N[C@@H]3C[C@@H]3F)cnc12 , readout=pIC50) returns 7.52

====

Please respond with reported pIC50 for every item in the list.
- Tested on: IFNα-stimulated Kit225 T cells with STAT-dependent luciferase reporter
- protocol details: Kit225 T cell assay, STAT-dependent luciferase reporter, IFNα stimulated
- Format: cell-based, human
- conditions used: 200 U/mL human recombinant IFNα, 5-6 hours, read-out: IFNa Kit225 Reporter, LE (IC50)
Give bare numbers, as −log10 of the molar value.

Recorded pIC50, per entry:
CNc1cc(Nc2cccn(C)c2=O)nn2c(C(=O)N[C@H]3CCOC3)cnc12 ... 6.01
CNc1cc(Nc2cccn(-c3ccc(C(F)(F)F)cc3)c2=O)nn2c(C(=O)NC3(C#N)CC3)cnc12 ... 6.85
CNc1cc(Nc2cc(F)cn(CC(C)(C)O)c2=O)nn2c(C(=O)NC3CC3)cnc12 ... 6.54
CNc1cc(Nc2cc(F)cn(-c3ccc(C)nn3)c2=O)nn2c(C(=O)NC3CC3)cnc12 ... 7.30
CNc1cc(Nc2cccn(-c3ncc(C(F)(F)F)cn3)c2=O)nn2c(C(=O)NC3CC3)cnc12 ... 6.96
CNc1cc(Nc2ccnn(-c3ccccc3)c2=O)nn2c(C(=O)NC3CC3)cnc12 ... 6.24

Now consider the entry below.
get_value(item= CNc1cc(Nc2cccn(-c3cccc(C(C)(C)O)n3)c2=O)nn2c(C(=O)N[C@@H]3C[C@@H]3F)cnc12 , readout=pIC50) returns 7.40
